pIC50: −log10 of the molar value.
Multi-source literature compilation: pIC50 on Cyclin-dependent kinase 6 (Homo sapiens).
EXPERIMENTAL ENDPOINT: pIC50

Worked examples follow.
CC(C)N1CCOc2c(F)cc(-c3nc(Nc4ccc(C5CCN(C)CC5)c(C#N)n4)ncc3F)cc21	7.54
COC1(c2c(C(=O)N(C)C)sc3cnc(Nc4ccc(N5CCNCC5)cn4)cc23)CCCC1	8.68
CN(C)C(=O)c1sc2cnc(Nc3ccc(N4CCNCC4)cn3)cc2c1C1CCOC1 (stereo not shown)	7.60

1 = CC(=O)c1c(C)c2cnc(Nc3ccc(N4CCN(CC5C(=O)O[C@@H]6[C@H]7O[C@]7(C)CCC/C=C(\C)C[C@@H]56)CC4)cn3)nc2n(C2CCCC2)c1=O (stereo partly shown)
2 = c1cc(Nc2ncc3c(n2)-c2c(cnn2C2CCCCC2)CC3)ncc1N1CCNCC1
Lookup: Of the two listed items, which has the higher pIC50? First: 1 Second: 2 In your reply, give the label of the chosen option.
Found: 1

* * *

Multi-source literature compilation: IC50 on Cyclin-dependent kinase 6 (Homo sapiens, UniProt Q00534).
EXPERIMENTAL ENDPOINT: IC50 (µM)

CCc1nc2c(n1C(C)C)-c1nc(Nc3ccc(N4CCNCC4)cn3)ncc1CC2	0.085
CC(C)N1CCOc2c(F)cc(-c3nc(Nc4cc(F)c(C5CCNCC5)cn4)ncc3F)cc21	0.003
Cc1c(-c2ccnc(Nc3ccc(N4CCNCC4)cc3)n2)sc(=O)n1C	6.27
CC(C)N1CCOc2c(F)cc(-c3nc(Nc4ccc(C(N)=O)c(F)c4)ncc3F)cc21	0.003

A = CC(C)N1CCOc2c(F)cc(-c3nc(Nc4ccc(N5CCN(C(=O)CN(C)C)CC5)cn4)ncc3F)cc21
B = CC(C)N1CCOc2c(F)cc(-c3nc(Nc4ccc5[nH]nc(C6CCNCC6)c5c4)ncc3F)cc21
C = COc1nc(Nc2ncc(F)c(-c3cc(F)c4c(c3)N(C(C)C)CCO4)n2)ccc1C1CCN(C)CC1
D = CC(C)N1CCOc2c(F)cc(-c3nc(Nc4cccc(N5CCCNCC5)c4)ncc3F)cc21
Lookup: Which order do these items take when sorted by rising IC50? List them. Please respond by ranking the labels in the order requested.
Found: A, B, C, D

* * *

pIC50: −log10 of the molar value.
Multi-source literature compilation: pIC50 on Cyclin-dependent kinase 6 (Homo sapiens).
EXPERIMENTAL ENDPOINT: pIC50

CCN1CCC(COc2ccc(Nc3ncc(F)c(-c4cc(F)c5c(c4)N(C(C)C)CCO5)n3)nc2)CC1	8.19

1 = COCc1nn(C(C)C)c2c1CCc1cnc(Nc3ccc(N4CCNCC4)cn3)nc1-2
2 = CC(C)N1CCOc2c(F)cc(-c3nc(Nc4ccc(N5CCC(O)CC5)cn4)ncc3F)cc21
3 = CCN1CCN(Cc2ccc(Nc3ncc4c(n3)-c3c(nc(C)n3C(C)C)CC4)nc2)CC1
4 = CC(C)N1CCOc2c(F)cc(-c3nc(Nc4cc5n(n4)CCN(C)C5)ncc3F)cc21
5 = CC(C)N1CCOc2c(F)cc(-c3nc(Nc4ccc(N5CCOCC5)cn4)ncc3F)cc21
Lookup: Parameters: sort_field (pIC50), sort_dir (desc). Please respond by ranking the labels in the order requested.
Found: 2, 4, 5, 3, 1
